Cited source: the supplement of paper PMC11417369

Below, each of the sequences is paired with its reported gcPBM binding intensity (ln) value.
- Tested on: PfAP2-I AP2 domain 3 (GST-tagged)
- assayDetails: gcPBM binding intensity (ln(normalized median fluorescence intensity)); higher = stronger DNA binding
In all, about 25,000 sequences were measured (“ln(normalized median fluorescence intensity)”: median about 7.9, highest 2% from about 11 on). Many of the other results were omitted from the sample, so the highest values are more common in it than they were.
Lab note: record the figure alone, no unit after it.

Exercise: Annotate the sequence TGTGTGTGTTCATGGGTGCTTTAATACTATTATAGG [GTGCAC_site9465] with its measured gcPBM binding intensity (ln).
Key: 11

Exercise: Annotate the sequence AAAATATAATATATTGCACACAAAAAGTGAATTATT [CACACA_site8489] with its measured gcPBM binding intensity (ln).
Key: 10

Exercise: Annotate the sequence ACATACATATGTAAATGTACAAAATATCCATAGATT [XGTACX_site2782] with its measured gcPBM binding intensity (ln).
Key: 7.54

Exercise: Annotate the sequence `TTTTTAATTTTGTGGGTGCTTTCGTGTTATTATATA` with its measured gcPBM binding intensity (ln).
Key: 9.41

Exercise: Annotate the sequence ATATATTTTTAAAAAAATTAAGAATTTTACATCTCC [CACACA_negctrl_site1450] with its measured gcPBM binding intensity (ln).
Key: 7.59

Exercise: Annotate the sequence TTATAAAAAAAAAAAAAAAAGAAAATGAATTCACGA [CACACA_negctrl_site1248] with its measured gcPBM binding intensity (ln).
Key: 8.19

Exercise: Annotate the sequence ACATATACAAGACACACACACAACGTTTTAATAAAT [CACACA_site7017] with its measured gcPBM binding intensity (ln).
Key: 8.12

Exercise: Annotate the sequence `AATATTGTTCACAAGGTGCTTTTTATTCATACTAAT` with its measured gcPBM binding intensity (ln).
Key: 8.86

Exercise: Annotate the sequence AAATAACAAAAGAAGGTGCTCATAAAAATTCATACA [GTGCAC_site9864] with its measured gcPBM binding intensity (ln).
Key: 8.51

Exercise: Annotate the sequence TGTAATAATTATTGCACGCACACAAAAACCTATAGA [CACACA_site2932] with its measured gcPBM binding intensity (ln).
Key: 10.8
